TEST TARGET: T1, TFAM (no MTS) (Homo sapiens, UniProt Q00059 43-246)
T1 sequence: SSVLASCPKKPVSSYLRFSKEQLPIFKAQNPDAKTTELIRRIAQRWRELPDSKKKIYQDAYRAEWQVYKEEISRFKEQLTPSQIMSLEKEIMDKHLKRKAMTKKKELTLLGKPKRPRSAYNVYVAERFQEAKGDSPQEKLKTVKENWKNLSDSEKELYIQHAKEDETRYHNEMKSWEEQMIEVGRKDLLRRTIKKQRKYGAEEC
TEST DESCRIPTION: fluorescence anisotropy; Hill n 2.40±0.43; FP: 25 mM HEPES, 10 mM Mg(OAc)2, 25 mM NaOAc, 75 mM KOAc, pH 7.5, 1 nM DNA, TFAM 0-15 nM diluted on ice (read temperature not stated); AFM oligos: on ice, 2 min
TEST CONDITIONS: protein: recombinant; label: 5' 6-FAM on strand 1; blunt

>  <BINDER>
ND1_450 (dsDNA) DNA 1: ACTCACCCTAGCATTACTTATATGATATGTCTC DNA 2: GAGACATATCATATAAGTAATGCTAGGGTGAGT

>  <READOUT UNIT>
nM

>  <Kd>
4.33

$$$$

The measured values listed here are drawn from paper PMC13016609.
